Catalogue of compounds with associated growth
System: EKVX NSCLC
ASSAY_METHOD_TEXT: NCI-60 one-dose screen, 48 h (100 = growth as untreated, 0 = no growth, -100 = all killed)
STUDY_CONDITIONS: 10 µM unless noted
About 83,000 compounds went through this panel and 20% of them were active in at least one assay; those are over-represented in the sample as a whole.

- COMPOUND: "Nc1c(F)cc(-c2nc3cc(F)ccc3[se]2)cc1Br"
  growth, %: 32.7
- COMPOUND: "C/C(=C\\c1cc(C(F)(F)F)nn1CCNC(=O)OC(C)(C)C)[C@@H]1C[C@@H]2O[C@]2(C)CCC[C@H](C)[C@H](O)[C@@H](C)C(=O)C(C)(C)[C@@H](O)CC(=O)O1"
  growth, %: 65
- COMPOUND: "O=C(CCCC1CCCCC1)OCC(Cl)(Cl)Cl"
  growth, %: 105
- COMPOUND: "CCOP(=O)(Nc1ccc2c(c1)/C(=N/NC(N)=S)c1ccccc1-2)OCC"
  growth, %: 92.9
- COMPOUND: "COC(=O)CC12CC(NC(=O)c3csc([C@@H](C[C@H](C(C)C)N(C)C(=O)[C@@H](NC(=O)[C@H]4CCCCN4C)C(C)C)OC(C)=O)n3)(C1)C2"
  growth, %: 38.6
- COMPOUND: "C=C1C[C@](OC)([C@H](O)C(=O)N[C@@H](OC)[C@@H]2C[C@@H](O)C(C)(C)[C@@H](C[C@@H](COC)OC)O2)O[C@H](C)[C@@H]1C"
  growth, %: -33.9
- COMPOUND: "CCCCNC(c1ccc(Cl)cc1)C(O)c1ccc(Cl)cc1 (centres undefined)"
  growth, %: 53.9
- COMPOUND: "C[C@]12CC[C@H]3[C@@H](CC4SC(N)=NC45C/C(=N/NC(N)=O)CC[C@]35C)[C@@H]1CCC2=O (some centres undefined)"
  growth, %: -4.54
- COMPOUND: "N#CC1C(C#N)C2CCC1C1C2N1c1ccccc1 (centres undefined)"
  growth, %: 97.5

----------
Test system: BT-549 breast
ASSAY_METHOD_TEXT: NCI-60 one-dose screen, 48 h
STUDY_CONDITIONS: 10 µM unless noted
Compounds without any hit were thinned out: in the full panel of roughly 83,000, 20% have a hit. Active and inactive are the calls of the source. How the source made its calls: active means growth percent below 10; inactive means the rest.
Possible outcomes: True (active), False (inactive)

- CHEMICAL_STRING: "O=[As](O)(O)c1ccccc1[As](=O)(O)O"
  TARGET: "BT-549 breast"
  CLASS_LABEL: "False"
- CHEMICAL_STRING: "CC[C@H](C)[C@H](NC(=O)C12CC(NC(C)=O)(C1)C2)C(=O)N(C)[C@H](C[C@@H](OC(C)=O)c1nc(C(=O)N[C@@H](Cc2ccccc2)C[C@H](C)C(=O)OC)cs1)C(C)C"
  TARGET: "BT-549 breast"
  CLASS_LABEL: "True"
- CHEMICAL_STRING: "COc1cccc(/C=C/[N+](=O)[O-])c1"
  TARGET: "BT-549 breast"
  CLASS_LABEL: "False"
- CHEMICAL_STRING: "COC(=O)[C@H](Cc1ccccc1)NNC(=O)c1csc([C@@H](C[C@H](C(C)C)N(C)C(=O)[C@@H](NC(=O)[C@H]2CCCCN2C)C2CC2)OC(C)=O)n1"
  TARGET: "BT-549 breast"
  CLASS_LABEL: "True"
- CHEMICAL_STRING: "CC(=O)OC[C@]1(C)C=C2C(=O)[C@](C)(O)C3(CC3)C(C)=C2[C@H]1OC(=O)N(C)CCN(C)C(=O)OC(C)(C)C"
  TARGET: "BT-549 breast"
  CLASS_LABEL: "True"
- CHEMICAL_STRING: "COc1ccc(C2=N[C@@H](Cc3ccccc3)C(=O)Nc3ccsc32)cc1"
  TARGET: "BT-549 breast"
  CLASS_LABEL: "False"
- CHEMICAL_STRING: "CN[C@]1(c2ccccc2Cl)CCCC[C@H]1NCCCN1CCN(C)CC1"
  TARGET: "BT-549 breast"
  CLASS_LABEL: "False"
- CHEMICAL_STRING: "CC1=C(CN)C2=C(C)C3(CC3)[C@@](C)(O)C(=O)C2=C1"
  TARGET: "BT-549 breast"
  CLASS_LABEL: "False"

----------
Test system: A549/ATCC NSCLC
ASSAY_METHOD_TEXT: NCI-60 one-dose screen, 48 h
STUDY_CONDITIONS: 10 µM unless noted
The panel holds about 83,000 compounds, 20% with a hit somewhere; the sample as a whole holds those more often. Active and inactive are the calls of the source. Rule for the calls: active = growth percent below 10; inactive = the rest.
Possible outcomes: 1.0 for active, 0.0 for inactive

- CHEMICAL_STRING: "C[C@]12CCc3sc(-c4ccccc4O)nc3C1=CC[C@@H]1[C@@H]2CC[C@]2(C)C(=O)CC[C@@H]12"
  CLASS_LABEL: 0.0
- CHEMICAL_STRING: "Fc1c[c-]c(-c2ccccn2)c(F)c1.[CH3-].[Pt+2].c1ccc([PH+](c2ccccc2)c2ccccn2)cc1"
  CLASS_LABEL: 0.0
- CHEMICAL_STRING: "CC(C)CCC1(CCCl)C(=O)NC(=O)NC1=O"
  CLASS_LABEL: 0.0
- CHEMICAL_STRING: "CCOC(=O)[C@@H](C)C[C@H](Cc1ccccc1)NC(=O)c1csc([C@@H](C[C@H](C(C)C)N(C)C(=O)[C@@H](NC(=O)[C@H]2C[C@H](O)CCN2C)C(C)C)OC(C)=O)n1"
  CLASS_LABEL: 0.0
- CHEMICAL_STRING: "COC(=O)[C@@]1(C)CC[C@]2(C)CC[C@]3(C)C4=CC=C5C(=CC(=O)C(O)=C5C)[C@]4(C)CC[C@@]3(C)[C@@H]2C1"
  CLASS_LABEL: 1.0
- CHEMICAL_STRING: "O=C(Nc1ccc(Br)cc1)c1cc(Br)cc(Br)c1O"
  CLASS_LABEL: 1.0
- CHEMICAL_STRING: "CCOC(=O)[C@@H](C)C[C@H](Cc1ccccc1)NC(=O)c1csc([C@@H](C[C@H](C(C)C)N(C)C(=O)[C@H](CC)NC(=O)[C@H]2CCCCN2C)OC(C)=O)n1"
  CLASS_LABEL: 1.0

----------
System: NCI-H322M lung
ASSAY_METHOD_TEXT: NCI-60 one-dose screen, 48 h (100 = growth as untreated, 0 = no growth, -100 = all killed)
STUDY_CONDITIONS: 10 µM unless noted
This is part of a sample that, as a whole, favours compounds with a hit. Of some 83,000 tested, about 20% had one in any assay.
Catalogue of compounds with associated growth

- COMPOUND: "C#C[C@]1(OC(=O)CCCCCC)CC[C@H]2[C@@H]3CCC4=CC(=O)CC[C@@H]4[C@H]3CC[C@@]21C"
  growth [%]: 49.5
- COMPOUND: "CC[C@H](C)[C@@H]([C@@H](CC(=O)N1CCC[C@H]1[C@H](OC)[C@@H](C)C(=O)N[C@H](C)[C@@H](O)c1ccccc1)OC)N(C)C(=O)[C@@H](NC(=O)[C@@H](NC)C(C)C)C(C)C"
  growth [%]: 50.8
- COMPOUND: "C/C(=C\\c1ccn(-c2ccc(N)cc2)n1)[C@@H]1C[C@@H]2O[C@]2(C)CCC[C@H](C)[C@H](O)[C@@H](C)C(=O)C(C)(C)[C@@H](O)CC(=O)O1"
  growth [%]: 18.6
- COMPOUND: "COc1cc(/C=N/C2=C(C#N)C(c3ccco3)c3c(c4cc(C)ccc4oc3=O)O2)cc(OC)c1OC (stereo not drawn)"
  growth [%]: 100
- COMPOUND: "c1ccc(Nc2nc(-c3ccccc3)c[se]2)cc1"
  growth [%]: 69.8
- COMPOUND: "ClCCN(CCCl)c1ccc(OCc2ccccc2)cc1"
  growth [%]: 102
- COMPOUND: "CC(CC1CCCCC1)NCc1ccccc1 (stereo not drawn)"
  growth [%]: 95
- COMPOUND: "COc1cc2c(=O)n(C3CCCCCCC3)c3c4cc[nH]c4ncc3c2cc1OC"
  growth [%]: 34.8

----------
System: SK-MEL-2 melanoma
ASSAY_METHOD_TEXT: NCI-60 one-dose screen, 48 h
STUDY_CONDITIONS: 10 µM unless noted
This is part of a sample that, as a whole, favours compounds with a hit. Of some 83,000 tested, about 20% had one in any assay. The source made the active and inactive calls. Rule for the calls: active = growth percent below 10; inactive = the rest.
Possible outcomes: active, inactive

- COMPOUND: "[Cl][Hg][c]1cc(Br)cc(Br)c1"
  CLASS_LABEL: "inactive"
- COMPOUND: "C[C@]12CCc3nc(Nc4ccccc4F)sc3C1=CC[C@@H]1[C@@H]2CC[C@]2(C)C(=O)CC[C@@H]12"
  CLASS_LABEL: "inactive"
- COMPOUND: "COc1ccc(/C=C\\c2cc(OC)c(OC)c(OC)c2)c(NS(=O)(=O)c2ccc(Cl)cc2)c1O"
  CLASS_LABEL: "active"
- COMPOUND: "COC(=O)[C@@H](C)C[C@H](Cc1ccccc1)NC(=O)c1nc([C@@H](C[C@H](C(C)C)N(C)C(=O)[C@@H](NC(=O)[C@H]2C[C@H](O)CCN2C)C(C)C)OC(C)=O)sc1C(C)C"
  CLASS_LABEL: "inactive"
- COMPOUND: "CC(C)COC(C[N+](=O)[O-])C(Cl)(Cl)Cl (centres undefined)"
  CLASS_LABEL: "inactive"
- COMPOUND: "CCOC(=O)c1c(C)n(Cc2ccccc2)c2cc(CN(C)C)c(O)cc12"
  CLASS_LABEL: "inactive"
- COMPOUND: "C=COC(=O)CCN1CC1"
  CLASS_LABEL: "inactive"
- COMPOUND: "C/C(CC(C)(C)N1CC1)=N\\NC(=O)Nc1cccc2ccccc12"
  CLASS_LABEL: "inactive"
- COMPOUND: "Fc1ccc2c(c1)c(-c1nc(-c3c[nH]c4ncccc34)cs1)cn2CCCCN1CCCCC1"
  CLASS_LABEL: "active"
- COMPOUND: "CC1(C)[C@H](O)[C@H](F)C[C@@]2(C)Oc3ccc(C(=O)Nc4ccc5c(c4)NC(=O)C54CCN(CCCCC#N)CC4)cc3C[C@H]12"
  CLASS_LABEL: "inactive"
- COMPOUND: "COc1cc(/C=C/[N+](=O)[O-])c([N+](=O)[O-])cc1OC"
  CLASS_LABEL: "active"
- COMPOUND: "Cc1ccc(S(=O)(=O)C(Cl)(Cl)Cl)cc1"
  CLASS_LABEL: "inactive"
- COMPOUND: "N#CC1(C#N)C(c2ccc(N(CCCl)CCCl)cc2)OC23CCCCC2C1(C#N)C(=N)O3 (centres undefined)"
  CLASS_LABEL: "inactive"
- COMPOUND: "COc1ccc(NC([Se])=NC23CC4CC(CC(C4)C2)C3)cc1"
  CLASS_LABEL: "active"
- COMPOUND: "Nc1ncnc2n[nH]nc12"
  CLASS_LABEL: "inactive"
- COMPOUND: "CC1(C)C(C(=O)c2cn(CCCCF)c3ccccc23)C1(C)C"
  CLASS_LABEL: "inactive"
- COMPOUND: "COc1ccc(/C=C\\c2cc(OC)c(OC)c(OC)c2)cc1NS(=O)(=O)c1ccc(Cl)cc1"
  CLASS_LABEL: "inactive"
- COMPOUND: "C/C=C(\\C)C(=O)O[C@@H]1C(O)[C@H]2OC(COC(=O)CCC(=O)CCCCCC[C@H](CCCCC)O[C@@H]3OC(C)[C@H](OC(C)=O)C(O)[C@H]3O2)[C@H]1OC(=O)/C=C/c1ccccc1 (some centres undefined)"
  CLASS_LABEL: "active"
- COMPOUND: "CCOC(=S)S[C@H]1C[C@@H]2[C@H](CC[C@]3(C)C(=O)CC[C@@H]23)[C@@]2(C)CCC(=O)C=C12"
  CLASS_LABEL: "inactive"
